# test_method_notes: SARA analysis of bitumen samples extracted from oil sands by each solvent
# Assay type: physicochemical
# reported_conditions: bitumen extracted at 30 C
# Experimental: The bitumen samples extracted at 30° C. from each oil sands sample were evaluated by SARA analysis to determine the saturates, aromatics, resins, and asphaltenes composition of the bitumen samples extracted by each solvent.
Below, each entry is listed alongside its reported Aromatics, oil composition of extracted bitumen.

INSERT INTO assay_data (compound, result) VALUES
  ('S=C=S [Carbon Disulfide, carbon disulfide]', '41.89 Normalized Weight Percent');

input: Supply recorded Aromatics, oil composition of extracted bitumen for C1CCOC1 [Tetrahydrofuran, tetrahydrofuran] here.
output: 45.24 Normalized Weight Percent

input: Supply recorded Aromatics, oil composition of extracted bitumen for Cc1ccccc1C [o-Xylene, o-xylene] here.
output: 46.39 Normalized Weight Percent

input: Supply recorded Aromatics, oil composition of extracted bitumen for CSC [Dimethyl Sulfide, dimethyl sulfide] here.
output: 47.07 Normalized Weight Percent
